SYSTEM_UNDER_TEST: human PD-L1 / Human PD-1 (Homo sapiens (Human))
Sequence (Q9NZQ7 19-239): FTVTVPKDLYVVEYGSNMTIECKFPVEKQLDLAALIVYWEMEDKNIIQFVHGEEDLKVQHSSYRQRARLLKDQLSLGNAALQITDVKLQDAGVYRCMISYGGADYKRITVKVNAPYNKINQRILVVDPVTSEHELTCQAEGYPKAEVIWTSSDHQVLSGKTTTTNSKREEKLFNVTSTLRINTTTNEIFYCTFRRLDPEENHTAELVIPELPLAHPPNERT
PROCEDURE_TEXT: Enzyme-Linked Immunosorbent Assay (ELISA), PD-1/PD-L1 binding
ASSAY_CONDITIONS: Table 3; plate-coated human PD-L1, biotinylated human PD-1; read-out: ELISA IC50
Below: a set of entries, each annotated with reported IC50.

N#Cc1cncc(COc2cc(O[C@H]3CCc4c(-c5ccccc5F)cccc43)c(Cl)cc2CNCc2ncc(-c3ccccc3)[nH]2)c1 [Example 3.081] | 500 to 20000 nM
Cn1nnc(-c2cncc(COc3cc(O[C@H]4CCc5c(-c6ccccc6F)cccc54)c(Cl)cc3CN[C@@H](CO)C(=O)O)c2)n1 [Example 3.101] | 100 to 500 nM

Next:
IN: Tell me its IC50 given N#Cc1cncc(COc2cc(O[C@H]3CCc4c(-c5ccccc5O)cccc43)c(Cl)cc2CN[C@@H](CO)C(=O)O)c1 [Example 3.079] as the entry.
OUT: 100 to 500 nM

Values were extracted from patent US10639284B2.
